Cited source for all entries: the RNAGym collection of RNA variant scans (doi:10.7554/elife.80360)

B1: HDV Ribozyme (parent)
chain: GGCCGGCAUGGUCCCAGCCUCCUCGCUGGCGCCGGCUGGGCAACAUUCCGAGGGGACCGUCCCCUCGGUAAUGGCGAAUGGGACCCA

variants of: B1; test: self-cleavage, relative activity (ratio to wild type); higher = more cleavage; co-transcriptional
Quick list: self-cleavage per entry.

Below, each entry is followed by its recorded self-cleavage result.
G50C C84G : 0.542
C3A G5C : 0.0339
C32G C63U : 0.112
C30G G80U : 0.0912
G76U A78G : 1.34
A77C G81C : 0.0504
C15A U60G : 0.731
C36A C84U : 0.163

-- ask Fill blank: measured self-cleavage of the variant G6C A16C is ____.
-- reply 0.712

-- ask Recorded self-cleavage of G59A C86A , please.
-- reply 0.842

-- ask Item G29A C85A has what recorded self-cleavage?
-- reply 0.17
